Numbers sourced from paper PMC5540273.

# System: MAPKAPK2;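 note: KINOMEscan kinase panel screen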
# condition_info: concentration: 1 μM,replicates: in singlicate; n = 1
Catalogue of %Inh values
The answer is to be given in %; state only the numeric part.

C[C@@H]1CCN(C(=O)CC#N)C[C@@H]1N(C)c1ncnc2[nH]ccc12: 0
Cl.Cl.Nc1nc(-c2ccc3c(N)n[nH]c3c2)cc(N2CCCC(NC(=O)c3ccccc3)C2)n1 (centres unmarked): 0
Cc1ccc(-n2nc(C(C)(C)C)cc2NC(=O)Nc2ccc(OCCN3CCOCC3)c3ccccc23)cc1: 0
CC(C)Nc1cc(-c2ccc3c(N)n[nH]c3c2)nc(N)n1: 32
CCN(CC)CCCCNc1ncc2cc(-c3c(Cl)cccc3Cl)c(NC(=O)NC(C)(C)C)nc2n1: 0
Cl.Cl.NC[C@H](CC1CCCCC1)NC(=O)c1cc(Br)c(-c2ccnc3[nH]ccc23)s1: 0
Cc1ccc2c(-c3ccncc3)c(-c3ccc(F)cc3)nn2c1.Cl: 0
Cl.Cl.NC[C@H](Cc1ccc(C(F)(F)F)cc1)NC(=O)c1cc(Br)c(-c2ccnc3[nH]ccc23)s1: 0

Can you share its %Inh? I mean this compound: `O=C(NCCNc1ccnc(NCc2ccc(F)cc2)n1)c1cc2ccccc2s1` 7

Can you share its %Inh? I mean this compound: `CCN(CC)CCOc1ccc(Nc2ncc3cc(-c4c(Cl)cccc4Cl)c(=O)n(C)c3n2)cc1` 0

Can you share its %Inh? I mean this compound: `O=C(NCCCN1CCOC1=O)c1cnc(NCc2cc(Cl)ccc2Cl)nc1NC1CCCC1` 0
